Entries and their IC50 values follow.
studyTarget: recombinant PI3K (p110α/p85α) (Homo sapiens, UniProt P42336)
Sequence (P42336 whole entry): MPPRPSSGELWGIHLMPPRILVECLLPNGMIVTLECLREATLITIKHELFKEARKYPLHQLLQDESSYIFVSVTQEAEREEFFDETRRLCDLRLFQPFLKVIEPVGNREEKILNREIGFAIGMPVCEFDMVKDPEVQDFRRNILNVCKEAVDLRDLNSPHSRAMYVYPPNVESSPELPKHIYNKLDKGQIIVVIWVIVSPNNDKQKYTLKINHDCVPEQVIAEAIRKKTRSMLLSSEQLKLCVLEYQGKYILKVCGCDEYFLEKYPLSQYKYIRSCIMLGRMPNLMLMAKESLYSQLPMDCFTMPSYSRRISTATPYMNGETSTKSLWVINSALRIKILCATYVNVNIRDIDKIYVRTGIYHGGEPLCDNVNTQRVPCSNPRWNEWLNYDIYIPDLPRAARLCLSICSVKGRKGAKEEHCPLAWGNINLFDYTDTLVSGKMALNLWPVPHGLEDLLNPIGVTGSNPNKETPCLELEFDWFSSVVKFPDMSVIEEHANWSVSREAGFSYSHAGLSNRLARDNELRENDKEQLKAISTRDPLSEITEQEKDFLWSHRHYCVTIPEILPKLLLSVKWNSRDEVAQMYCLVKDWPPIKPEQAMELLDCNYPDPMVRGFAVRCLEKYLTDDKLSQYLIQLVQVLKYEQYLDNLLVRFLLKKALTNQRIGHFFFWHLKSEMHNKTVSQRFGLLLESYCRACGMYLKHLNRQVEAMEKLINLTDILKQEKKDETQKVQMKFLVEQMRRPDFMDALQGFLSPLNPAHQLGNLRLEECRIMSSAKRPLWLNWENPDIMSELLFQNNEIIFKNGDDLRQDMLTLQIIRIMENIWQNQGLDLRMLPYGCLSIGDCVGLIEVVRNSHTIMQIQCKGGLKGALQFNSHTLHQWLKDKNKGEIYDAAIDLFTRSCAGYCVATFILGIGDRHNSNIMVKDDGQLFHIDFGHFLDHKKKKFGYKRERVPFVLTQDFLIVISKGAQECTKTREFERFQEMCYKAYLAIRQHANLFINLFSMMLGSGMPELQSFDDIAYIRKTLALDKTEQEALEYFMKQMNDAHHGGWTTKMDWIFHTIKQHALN
Sequence (P27986 whole entry partner): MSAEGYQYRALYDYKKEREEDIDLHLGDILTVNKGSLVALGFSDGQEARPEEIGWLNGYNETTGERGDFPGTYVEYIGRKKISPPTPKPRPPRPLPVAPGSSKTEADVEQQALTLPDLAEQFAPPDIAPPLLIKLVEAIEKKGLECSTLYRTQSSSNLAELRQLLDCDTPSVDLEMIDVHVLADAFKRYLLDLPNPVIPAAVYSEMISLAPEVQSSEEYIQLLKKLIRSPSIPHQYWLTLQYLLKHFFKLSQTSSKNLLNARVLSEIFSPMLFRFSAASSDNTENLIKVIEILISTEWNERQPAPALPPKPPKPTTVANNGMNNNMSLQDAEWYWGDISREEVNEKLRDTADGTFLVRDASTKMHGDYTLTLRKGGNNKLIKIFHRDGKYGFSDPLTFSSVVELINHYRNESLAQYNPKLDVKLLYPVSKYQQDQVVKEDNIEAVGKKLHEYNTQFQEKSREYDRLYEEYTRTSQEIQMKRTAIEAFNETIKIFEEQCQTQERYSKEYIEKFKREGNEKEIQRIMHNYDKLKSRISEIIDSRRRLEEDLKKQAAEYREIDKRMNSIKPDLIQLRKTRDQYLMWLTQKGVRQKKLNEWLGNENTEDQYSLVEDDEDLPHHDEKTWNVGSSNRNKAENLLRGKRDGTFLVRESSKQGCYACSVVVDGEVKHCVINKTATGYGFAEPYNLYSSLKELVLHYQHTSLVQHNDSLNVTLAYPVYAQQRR
assayOverview: PI3Kα ADP-Glo kinase assay
Assay type: biochemical
conditionNotes: read-out: PI3Kα Enzyme activity IC50
Quick note: give the figure in µM, leave out the unit.

> print(dat)
                                   molecule                               studytarget  assaymetric  quantitativereadout
1  Cc1nc([C@@H](C)c2cc(Cl)c(F)c(-c3ccc(C(=O)NC4(C(=O)O)CC4)nc3)c2OC(C)C)n2ccnc(N)c12  recombinant PI3K (p110α/p85α) (Homo sapiens, UniProt P42336)         IC50                  3.4

Moving on to the next molecule.
Ask: State the recorded IC50 for this entry: Cc1nc([C@@H](C)c2cc(Cl)c(F)c(-c3ccc(C(F)(F)F)nc3)c2OC(C)C)n2ccnc(N)c12
Reply: 14

* * *

Entries and their pIC50 values follow.
studyTarget: UniProtKB P48736
Sequence (P48736 whole entry): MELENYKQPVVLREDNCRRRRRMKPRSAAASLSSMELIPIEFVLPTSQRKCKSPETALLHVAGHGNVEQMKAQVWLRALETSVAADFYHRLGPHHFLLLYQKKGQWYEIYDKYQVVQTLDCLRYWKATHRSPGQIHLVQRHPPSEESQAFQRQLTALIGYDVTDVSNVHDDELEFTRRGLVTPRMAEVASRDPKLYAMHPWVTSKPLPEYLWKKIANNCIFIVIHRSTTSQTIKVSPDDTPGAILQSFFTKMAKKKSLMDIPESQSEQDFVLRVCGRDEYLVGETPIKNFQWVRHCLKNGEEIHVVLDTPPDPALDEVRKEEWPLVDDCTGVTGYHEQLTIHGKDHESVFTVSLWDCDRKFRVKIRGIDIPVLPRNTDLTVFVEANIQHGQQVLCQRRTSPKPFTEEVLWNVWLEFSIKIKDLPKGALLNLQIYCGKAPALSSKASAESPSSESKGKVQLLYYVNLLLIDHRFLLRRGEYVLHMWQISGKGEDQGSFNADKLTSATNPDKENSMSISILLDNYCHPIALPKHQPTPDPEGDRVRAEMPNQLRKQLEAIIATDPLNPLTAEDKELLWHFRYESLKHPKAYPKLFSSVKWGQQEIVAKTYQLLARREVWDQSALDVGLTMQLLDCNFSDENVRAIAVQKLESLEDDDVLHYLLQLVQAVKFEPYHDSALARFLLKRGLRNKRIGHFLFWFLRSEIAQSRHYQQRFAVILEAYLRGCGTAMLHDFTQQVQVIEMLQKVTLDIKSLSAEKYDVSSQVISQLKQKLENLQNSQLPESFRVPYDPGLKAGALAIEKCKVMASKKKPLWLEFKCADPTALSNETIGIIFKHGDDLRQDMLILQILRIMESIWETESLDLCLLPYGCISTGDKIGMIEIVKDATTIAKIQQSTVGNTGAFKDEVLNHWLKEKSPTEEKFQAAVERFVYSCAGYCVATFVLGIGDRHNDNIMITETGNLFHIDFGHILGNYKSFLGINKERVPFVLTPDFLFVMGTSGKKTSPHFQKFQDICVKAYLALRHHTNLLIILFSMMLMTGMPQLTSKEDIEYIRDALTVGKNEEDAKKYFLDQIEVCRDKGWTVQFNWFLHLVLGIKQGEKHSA
assayOverview: PI3Kγ ADP-Glo kinase assay
Format: biochemical
conditionNotes: read-out: PI3Kγ Enzyme activity IC50
# log scale: pIC50 equals minus log10 of the concentration in mol/L

As a guide, the following entries are already answered.
> print(dat)
                                   compound  quantitativereadout
1  CC(C)Oc1c([C@H](C)c2nc(Cl)c3c(N)nccn23)cc(Cl)c(F)c1-c1ccc(C(N)=O)nc1 [Compound 17B]                 6.28
2  CC(C)Oc1c(C(C)c2nc(Cl)c3c(N)nccn23)cc(Cl)c(Cl)c1-c1ccc(C(F)(F)F)nc1 (stereo not shown)                 6.05
3  Cc1nc([C@@H](C)c2cc(Cl)c(F)c(-c3ccc(C(N)=NO)nc3)c2OC(C)C)n2ccnc(N)c12                 5.55

Moving on to the next compound.
Ask: Find pIC50 (UniProtKB P48736) for the entry CCOc1c(C(C)c2nc(C)c3c(N)nccn23)cc(Cl)c(C)c1-c1ccc(C(F)(F)F)nc1 (stereo not shown)
Reply: 5.68

* * *

studyTarget: recombinant PI3K (p110α/p85α) (Homo sapiens, UniProt P42336)
assayOverview: PI3Kα ADP-Glo kinase assay
Format: biochemical
conditionNotes: read-out: PI3Kα Enzyme activity IC50
Entries and their pIC50 values follow.
# log scale: pIC50 equals minus log10 of the concentration in mol/L

As a guide, the following entries are already answered.
> print(dat)
                                   compound  assaymetric  quantitativereadout
1  CCOc1c(C(C)c2nc(Cl)c3c(N)nccn23)cc(Cl)c(C)c1-c1ccc(=O)[nH]c1 (centres unmarked) [Compound 15]        pIC50                 6.08
2  CCOc1c(C(C)c2nc(Cl)c3c(N)nccn23)cc(Cl)c(C)c1-c1ccc(Cl)nc1 (centres unmarked) [Compound 27]        pIC50                 5.48
3  Cc1nc([C@@H](C)c2cc(Cl)c(F)c(-c3ccc(C(=O)N4CC(O)C4)nc3)c2OC(C)C)n2ccnc(N)c12 [Compound 63]        pIC50                 5.59
4  CCOc1c(C(C)c2nc(Br)c3c(N)nccn23)cc(Cl)c(C)c1-c1cncc(C(F)(F)F)c1 (centres unmarked) [Compound 39]        pIC50                 5.49

Ask: State the recorded pIC50 for this entry: CCOc1c(C(C)c2nc(Cl)c3c(N)nccn23)cc(Cl)c(F)c1C1CCOCC1 (single isomer, unassigned) [Compound 49A]
Reply: 5.68

Ask: State the recorded pIC50 for this entry: COc1cc(C(C)n2cc(Br)c3c(N)ncnc32)n(-c2ccccc2)c(=O)c1C#N (centres unmarked) [Compound 57]
Reply: 4.08

* * *

Entries and their log10 of IC50 values follow.
studyTarget: PI3K (p110β/p85α) (Homo sapiens, UniProt P42338)
Sequence (P42338 whole entry, one chain of several): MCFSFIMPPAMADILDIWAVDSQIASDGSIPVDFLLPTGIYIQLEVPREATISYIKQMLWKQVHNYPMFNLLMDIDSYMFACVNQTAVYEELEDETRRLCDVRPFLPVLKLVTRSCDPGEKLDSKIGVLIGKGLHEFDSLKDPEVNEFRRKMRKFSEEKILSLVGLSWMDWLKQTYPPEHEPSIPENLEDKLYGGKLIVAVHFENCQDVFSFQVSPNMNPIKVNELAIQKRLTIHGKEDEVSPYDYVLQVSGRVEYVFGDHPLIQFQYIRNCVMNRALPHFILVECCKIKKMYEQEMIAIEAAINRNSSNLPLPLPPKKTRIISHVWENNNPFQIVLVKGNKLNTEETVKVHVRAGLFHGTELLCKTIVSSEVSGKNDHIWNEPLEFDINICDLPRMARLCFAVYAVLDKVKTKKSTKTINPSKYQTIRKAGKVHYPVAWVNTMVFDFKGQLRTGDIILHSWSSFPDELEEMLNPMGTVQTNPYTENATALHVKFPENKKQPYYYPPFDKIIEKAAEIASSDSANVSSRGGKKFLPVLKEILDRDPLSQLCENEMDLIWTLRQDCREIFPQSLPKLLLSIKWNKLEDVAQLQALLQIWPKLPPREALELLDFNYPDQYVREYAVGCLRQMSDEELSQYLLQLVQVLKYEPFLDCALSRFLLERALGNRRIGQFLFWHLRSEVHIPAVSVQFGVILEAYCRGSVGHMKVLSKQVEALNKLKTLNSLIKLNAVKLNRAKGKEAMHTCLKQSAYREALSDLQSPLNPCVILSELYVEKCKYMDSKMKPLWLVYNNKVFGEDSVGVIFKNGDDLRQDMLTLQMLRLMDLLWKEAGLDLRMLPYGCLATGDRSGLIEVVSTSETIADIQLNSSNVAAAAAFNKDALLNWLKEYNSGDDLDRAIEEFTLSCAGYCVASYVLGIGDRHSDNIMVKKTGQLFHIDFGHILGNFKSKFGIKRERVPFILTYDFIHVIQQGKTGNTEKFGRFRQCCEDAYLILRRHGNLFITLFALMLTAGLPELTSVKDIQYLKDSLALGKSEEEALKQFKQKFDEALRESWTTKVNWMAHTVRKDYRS
assayOverview: PI3Kβ ADP-Glo kinase assay
Type: biochemical
conditionNotes: read-out: PI3Kβ Enzyme activity IC50
Log scale reminder: IC50 in µM, then log10 taken.

As a guide, the following entries are already answered.
> print(dat)
                                   compound    assaymetric  quantitativereadout
1  CC(C)Oc1c(C(C)c2nc(Cl)c3c(N)nccn23)cc(Cl)c(F)c1-c1ccc(C(N)=O)nc1 (centres unmarked) [Compound 17]  log10 of IC50                 0.20
2  CCOc1c(C(C)c2nc(Cl)c3c(N)nccn23)cc(Cl)c(C)c1-c1ccc(OCCOC)nc1 (centres unmarked) [Compound 31]  log10 of IC50                -0.21

Ask: State the recorded log10 of IC50 for this entry: CC(C)Oc1c(C(C)c2nc(Cl)c3c(N)nccn23)cc(F)c(Cl)c1-c1ccc(C(F)(F)F)nc1 (centres unmarked) [Compound 35]
Reply: 1.90

Ask: State the recorded log10 of IC50 for this entry: CCOc1cc(C)c(Cl)cc1C(C)c1nc(Br)c2c(N)nccn12 (centres unmarked) [Compound 50]
Reply: -0.17

Ask: State the recorded log10 of IC50 for this entry: CCOc1c(C(C)c2nc(Cl)c3c(N)nccn23)cc(Cl)c(F)c1-c1ccc(C(=O)N(C)C)nc1 (centres unmarked) [Compound 13]
Reply: -0.40

Ask: State the recorded log10 of IC50 for this entry: CC(C)Oc1c(C(C)c2nc(Cl)c3c(N)nccn23)cc(Cl)c(F)c1C1CNC(=O)C1 (centres unmarked) [Compound 48]
Reply: -0.24

Ask: State the recorded log10 of IC50 for this entry: Cc1nc(C(C)c2cc(Cl)c(F)c(-c3ccc(C#N)nc3)c2OC(C)C)n2ccnc(N)c12 (centres unmarked) [Compound 59]
Reply: 0.54

Ask: State the recorded log10 of IC50 for this entry: CCCOc1c([C@H](C)c2nc(Cl)c3c(N)nccn23)cc(Cl)c(F)c1-c1ccc(C(F)(F)F)nc1 [Compound 42A]
Reply: 0.34

* * *

studyTarget: recombinant PI3K (p110δ/p85α) (Homo sapiens)
Sequence (O00329 whole entry): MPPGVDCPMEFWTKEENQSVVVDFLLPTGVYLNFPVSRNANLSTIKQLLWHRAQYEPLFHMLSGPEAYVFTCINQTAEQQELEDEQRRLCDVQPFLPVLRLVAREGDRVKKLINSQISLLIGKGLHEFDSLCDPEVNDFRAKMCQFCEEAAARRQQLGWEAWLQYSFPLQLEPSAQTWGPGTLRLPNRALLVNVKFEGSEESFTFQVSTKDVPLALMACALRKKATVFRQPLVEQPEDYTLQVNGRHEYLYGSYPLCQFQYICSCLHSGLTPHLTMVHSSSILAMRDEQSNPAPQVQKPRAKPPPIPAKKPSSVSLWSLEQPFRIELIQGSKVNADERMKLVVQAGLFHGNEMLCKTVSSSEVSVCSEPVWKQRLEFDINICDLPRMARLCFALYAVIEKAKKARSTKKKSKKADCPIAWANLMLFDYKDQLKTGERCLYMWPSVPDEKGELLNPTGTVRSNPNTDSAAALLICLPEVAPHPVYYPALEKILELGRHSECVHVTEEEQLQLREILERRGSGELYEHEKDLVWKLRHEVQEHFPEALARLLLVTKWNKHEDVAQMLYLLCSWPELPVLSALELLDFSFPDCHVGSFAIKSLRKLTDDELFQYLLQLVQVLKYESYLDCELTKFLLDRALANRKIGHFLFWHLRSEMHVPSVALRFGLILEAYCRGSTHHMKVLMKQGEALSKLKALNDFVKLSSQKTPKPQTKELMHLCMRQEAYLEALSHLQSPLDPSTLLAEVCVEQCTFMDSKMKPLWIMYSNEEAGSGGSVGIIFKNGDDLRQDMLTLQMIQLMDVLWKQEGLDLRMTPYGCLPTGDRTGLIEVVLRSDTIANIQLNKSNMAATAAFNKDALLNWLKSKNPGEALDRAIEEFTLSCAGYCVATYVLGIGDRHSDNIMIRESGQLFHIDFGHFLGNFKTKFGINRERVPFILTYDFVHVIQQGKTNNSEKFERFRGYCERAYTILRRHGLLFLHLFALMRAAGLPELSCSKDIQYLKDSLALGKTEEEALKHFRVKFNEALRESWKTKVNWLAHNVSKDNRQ
Sequence (P27986 whole entry partner): as the sequence (P27986 whole entry partner) above
assayOverview: PI3Kδ ADP-Glo kinase assay
Assay type: biochemical
conditionNotes: read-out: PI3Kδ Enzyme activity IC50
assayMetric: pIC50
# log scale: pIC50 equals minus log10 of the concentration in mol/L

As a guide, the following entries are already answered.
> print(dat)
                                    compound                               studytarget  assaymetric  quantitativereadout
 1  CCOc1c(C(C)c2nc(Cl)c3c(N)nccn23)cc(Cl)c(C)c1-c1ccc(=O)[nH]c1 (stereo not shown)  recombinant PI3K (p110δ/p85α) (Homo sapiens)        pIC50                 8.92
 2  CCOc1c(C(C)c2nc(Cl)c3c(N)nccn23)cc(Cl)c(F)c1-c1ccc(C(=O)N(C)C)nc1 (stereo not shown)  recombinant PI3K (p110δ/p85α) (Homo sapiens)        pIC50                 8.92
 3  Cc1nc([C@@H](C)c2cc(Cl)c(F)c(-c3ccc(C(=O)N4CCC(F)(F)CC4)nc3)c2OC(C)C)n2ccnc(N)c12  recombinant PI3K (p110δ/p85α) (Homo sapiens)        pIC50                 9.02
 4  COc1cc(C(C)n2cc(Br)c3c(N)ncnc32)n(-c2ccccc2)c(=O)c1C#N (stereo not shown)  recombinant PI3K (p110δ/p85α) (Homo sapiens)        pIC50                 7.70
 5  CCOc1c([C@H](C)c2nc(Cl)c3c(N)nccn23)cc(Cl)c(C)c1-c1ccc(C(=O)N(C)C)nc1  recombinant PI3K (p110δ/p85α) (Homo sapiens)        pIC50                 9.27
 6  Cc1nc(C(C)c2cc(Cl)c(F)c(-c3ccc(C#N)nc3)c2OC(C)C)n2ccnc(N)c12 (single isomer, unassigned) [Compound 59A]  recombinant PI3K (p110δ/p85α) (Homo sapiens)        pIC50                 8.92
 7  COc1c(C(C)c2nc(Br)c3c(N)nccn23)cc(Cl)c(C)c1-c1ccc(Cl)nc1 (stereo not shown)  recombinant PI3K (p110δ/p85α) (Homo sapiens)        pIC50                 8.82
 8  CCOc1c([C@@H](C)c2nc(Cl)c3c(N)nccn23)cc(Cl)c(C)c1-c1ccc(C)nc1  recombinant PI3K (p110δ/p85α) (Homo sapiens)        pIC50                 6.77
 9  CCCOc1c([C@H](C)c2nc(Cl)c3c(N)nccn23)cc(Cl)c(F)c1-c1ccc(C(F)(F)F)nc1 [Compound 42A]  recombinant PI3K (p110δ/p85α) (Homo sapiens)        pIC50                 8.39
10  Cc1nc([C@@H](C)c2cc(Cl)c(F)c(-c3ccc(C(=O)NC(C)(C)C(=O)O)nc3)c2OC(C)C)n2ccnc(N)c12  recombinant PI3K (p110δ/p85α) (Homo sapiens)        pIC50                 9.48

Ask: Find pIC50 (recombinant PI3K (p110δ/p85α) (Homo sapiens)) for the entry Cc1nc([C@@H](C)c2cc(Cl)c(F)c(-c3ccc(C(N)=NO)nc3)c2OC(C)C)n2ccnc(N)c12
Reply: 8.80

Ask: Find pIC50 (recombinant PI3K (p110δ/p85α) (Homo sapiens)) for the entry CCOc1c(C(C)c2nc(Cl)c3c(N)nccn23)cc(Cl)c(F)c1-c1ccc(C(F)(F)F)nc1OC (stereo not shown)
Reply: 7.23

Ask: Find pIC50 (recombinant PI3K (p110δ/p85α) (Homo sapiens)) for the entry CCOc1c([C@H](C)c2nc(Cl)c3c(N)nccn23)cc(Cl)c(C)c1-c1ccc(C)nc1
Reply: 9.29
